Data provenance is paper PMC12081497.

# System: MCF-7 human cancer cell line
# testMethodNotes: In vitro anti-proliferative MTT assay
# Type: cell-based
# recordedConditions: MTT, MCF-7, 48 h treatment; read-out: Cytotoxicity IC50, SD (±), MCF7
pIC50: −log10 of the molar value.
pIC50 for assorted compounds
propertyMeasured: pIC50

{"columns": ["compound", "propertyMeasured", "resultValue"],
 "data": [
  ["COc1ccc(-c2cc(-c3ccc(OCC(=O)Nc4ccccc4)c(OC)c3)c(C#N)c(=O)[nH]2)cc1", "pIC50", 5.11],
  ["COc1cc(-c2cc(-c3ccccc3)n(C)c(=O)c2C#N)ccc1OCC(=O)Nc1ccccc1", "pIC50", 5.04],
  ["COc1ccc(-c2cc(-c3ccc(OCC(=O)Nc4ccccc4)c(OC)c3)c(C#N)c(OC)n2)cc1", "pIC50", 5.43],
  ["COc1cc(-c2cc(-c3ccccc3)[nH]c(=O)c2C#N)ccc1OCC(=O)Nc1ccccc1", "pIC50", 5.09],
  ["COc1cc(-c2cc(-c3cccnc3)[nH]c(=O)c2C#N)ccc1OCC(=O)Nc1ccccc1", "pIC50", 5.72],
  ["COc1cc(-c2cc(-c3ccc[n+](C)c3)nc(OC)c2C#N)ccc1OCC(=O)Nc1ccccc1.[I-]", "pIC50", 5.67],
  ["COc1cccc2c1C(=O)c1c(O)c3c(c(O)c1C2=O)C[C@@](O)(C(=O)CO)C[C@@H]3O[C@H]1C[C@H](N)[C@H](O)[C@H](C)O1 [Doxorubicin, reference compound]", "pIC50", 4.94],
  ["COc1cccc(-c2cc(-c3ccc(OCC(=O)Nc4ccccc4)c(OC)c3)c(C#N)c(=O)n2C)c1", "pIC50", 5.06],
  ["COc1cc(-c2cc(-c3ccco3)[nH]c(=O)c2C#N)ccc1OCC(=O)Nc1ccccc1", "pIC50", 5.40],
  ["COc1cc(-c2cc(-c3cccs3)[nH]c(=O)c2C#N)ccc1OCC(=O)Nc1ccccc1", "pIC50", 5.71]
]}

====

# targetSystem: PIM-1 kinase (Homo sapiens)
# Construct: purchased Promega V4032
# Sequence (P11309 whole entry): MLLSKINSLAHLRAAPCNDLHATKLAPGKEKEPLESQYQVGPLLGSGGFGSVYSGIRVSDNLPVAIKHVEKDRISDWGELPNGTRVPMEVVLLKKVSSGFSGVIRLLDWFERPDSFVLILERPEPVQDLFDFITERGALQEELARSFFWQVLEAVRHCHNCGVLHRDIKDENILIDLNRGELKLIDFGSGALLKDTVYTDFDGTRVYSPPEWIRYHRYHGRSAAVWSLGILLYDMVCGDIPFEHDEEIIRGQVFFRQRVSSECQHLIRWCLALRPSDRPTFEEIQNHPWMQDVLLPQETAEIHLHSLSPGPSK
# testMethodNotes: PIM-1 kinase inhibition assay (Promega PIM-1 kinase assay kit, ADP-Glo)
# Format: biochemical
# recordedConditions: concentrations 10, 1, 0.1 and 0.01 µM, read-out: PIM1-Kinase IC50
pIC50: −log10 of the molar value.
propertyMeasured: pIC50

{"columns": ["compound", "targetSystem", "resultValue"],
 "data": [
  ["COc1cc(-c2cc(-c3cccnc3)[nH]c(=O)c2C#N)ccc1OCC(=O)Nc1ccccc1 [7h]", "PIM-1 kinase (Homo sapiens)", 6.55]
]}

====

Entries and their measured melting point follow.
propertyMeasured: melting point

{"columns": ["molecularString", "propertyMeasured", "resultValue"],
 "data": [
  ["COc1cc(-c2cc(-c3ccco3)[nH]c(=O)c2C#N)ccc1OCC(=O)Nc1ccccc1", "melting point", "296 to 298 °C"],
  ["COc1cc(-c2cc(-c3ccco3)nc(OC)c2C#N)ccc1OCC(=O)Nc1ccccc1", "melting point", "178 to 180 °C"],
  ["COc1cc(-c2cc(-c3ccc[n+](C)c3)nc(OC)c2C#N)ccc1OCC(=O)Nc1ccccc1.[I-]", "melting point", "284 to 286 °C"],
  ["COc1cc(-c2cc(-c3ccccc3)[nH]c(=O)c2C#N)ccc1OCC(=O)Nc1ccccc1", "melting point", "276 to 278 °C"],
  ["COc1ccc(-c2cc(-c3ccc(OCC(=O)Nc4ccccc4)c(OC)c3)c(C#N)c(OC)n2)cc1", "melting point", "188 to 190 °C"],
  ["COc1cc(-c2cc(-c3ccc(Cl)cc3)[nH]c(=O)c2C#N)ccc1OCC(=O)Nc1ccccc1", "melting point", "276 to 278 °C"],
  ["COc1cc(-c2cc(-c3ccc4ccccc4c3)[nH]c(=O)c2C#N)ccc1OCC(=O)Nc1ccccc1", "melting point", "> 300 °C"],
  ["COc1cccc(-c2cc(-c3ccc(OCC(=O)Nc4ccccc4)c(OC)c3)c(C#N)c(OC)n2)c1", "melting point", "158 to 160 °C"]
]}

====

Each record here notes measured melting point.
propertyMeasured: melting point

{"columns": ["compound", "resultValue"],
 "data": [
  ["COc1ccc(-c2cc(-c3ccc(OCC(=O)Nc4ccccc4)c(OC)c3)c(C#N)c(=O)[nH]2)cc1 [7c]", "284 to 286 °C"],
  ["COc1cc(-c2cc(-c3cccs3)[nH]c(=O)c2C#N)ccc1OCC(=O)Nc1ccccc1 [7g]", "293 to 295 °C"],
  ["COc1cc(-c2cc(-c3cccnc3)[nH]c(=O)c2C#N)ccc1OCC(=O)Nc1ccccc1 [7h]", "295 to 297 °C"],
  ["COc1cc(-c2cc(-c3ccc4ccccc4c3)nc(OC)c2C#N)ccc1OCC(=O)Nc1ccccc1 [8f]", "193 to 195 °C"],
  ["COc1cc(-c2cc(-c3ccco3)n(C)c(=O)c2C#N)ccc1OCC(=O)Nc1ccccc1 [9g]", "170 to 172 °C"],
  ["COc1cc(-c2cc(-c3ccc4ccccc4c3)n(C)c(=O)c2C#N)ccc1OCC(=O)Nc1ccccc1 [9f]", "193 to 195 °C"]
]}
